assay: yeast display, Sf9 membrane polyspecificity reagent, FACS + sequencing; frameworks hold sequencing errors
Metric Name: polyreactivity (PSR sort gate)

Worked cases, answers included:
[[record]]
seq_text = "QVQLVESGGGLVQAGGSLRLSCAASGSIFIYYAMGWYRQAPGKERELVATISSDDRTNYTDSVKGRFTISRDNAKNTVYLQMNSLKPEDTAVYYCAADRYWAGRDGPEYDYWGQGTQVTVSS"
result = "low polyreactivity"

[[record]]
seq_text = "QVQLVESGGVLVQAGGSLRLSCAASGSTFLGYAMGWYRQAPGKERELVAAISSGGSTNYADSVKGRFTLSRDNAKNTVYLQMNSLKPDDTAVYYCGARTRRFRYYYWGQGPQVTVSS"
result = "high polyreactivity"

[[record]]
seq_text = "QVQLVESGGGLVQAGGSLRLSCAASGFIFYYYAMGWYRQAPGKERELVAGITATGGSTYYADSVKGRFTISRDNAKNTVYLQMNSLKPEDTAVYYCARGPSGTPNGNTPYGDNRYNSWGQGTQVTVSS"
result = "low polyreactivity"

[[record]]
seq_text = "QVQLVESGGGLVQAGGSLRLSCAASGIIFIPYAMGWYRQAPGKERELVASISKRGGRTYYADSVKGRFTISRDNAKNTVYLQMNSLKPEDTAVYYCAAYARYPVVYGVDYWGQGTQVTVSS"
result = "high polyreactivity"


Proceed to the following item.
Problem: Using the record for `QVQLVESGGGLVQAGGSLRLSCAASGRIFTTNAMGWYRQAPGKDRELVAAITYSGGTTYYADSVKGRFTISRDNAKNTVYLEMNSLKPEDTAVYYCAADVKFSTPYDYWGQGTQVTVSS` , report its polyreactivity (PSR sort gate).
Result: low polyreactivity
